Recorded % Inhibition for the following molecules
- System: Brain-Specific Receptors of Rats
- protocol summary: Inhibition of the binding of 3H-benzodiazepine to brain-specific receptors of rats
- Design: species or system rat (Wistar)
- protocol conditions: 3H-diazepam 1.5 nM or 3H-flunitrazepam 1.0 nM; rat cortex P2 fraction; test concentration not given
measured property: % Inhibition (%)

test_smiles=COc1ccc(C(=O)c2cnn3c(-c4cccc(C(F)(F)F)c4)ccnc23)cc1OC uom=% result_number=94
test_smiles=O=C(c1ccco1)c1cnn2c(-c3cccc(C(F)(F)F)c3)ccnc12 uom=% result_number=98
test_smiles=O=C(c1ccccn1)c1cnn2c(-c3cccc(C(F)(F)F)c3)ccnc12 uom=% result_number=93
test_smiles=Cc1cnc2c(C(=O)c3ccccc3)cnn2c1-c1ccncc1 uom=% result_number=56
test_smiles=Cc1cc(-c2cccnc2)n2ncc(C(=O)c3ccc(F)cc3)c2n1 uom=% result_number=25
test_smiles=Cc1cc(-c2cccnc2)n2ncc(C(=O)c3ccccc3)c2n1 uom=% result_number=15
test_smiles=O=C(c1ccco1)c1cnn2c(-c3ccncc3)ccnc12 uom=% result_number=19
test_smiles=O=C(c1cccc(C(F)(F)F)c1)c1cnn2c(-c3ccco3)ccnc12 uom=% result_number=36
test_smiles=O=C(c1ccc(F)cc1)c1cnn2c(-c3ccccc3F)ccnc12 uom=% result_number=22
test_smiles=O=C(c1ccco1)c1cnn2c(-c3ccccc3F)ccnc12 uom=% result_number=34
test_smiles=O=C(c1ccc(F)cc1)c1cnn2c(-c3ccccc3)ccnc12 uom=% result_number=42
test_smiles=O=C(c1cccc(C(F)(F)F)c1)c1cnn2c(-c3cccc(C(F)(F)F)c3)ccnc12 uom=% result_number=56
